# TARGET_DESC: CRBN truncate (318-426) (Homo sapiens (Human))
# Sequence (Q96SW2 318-426): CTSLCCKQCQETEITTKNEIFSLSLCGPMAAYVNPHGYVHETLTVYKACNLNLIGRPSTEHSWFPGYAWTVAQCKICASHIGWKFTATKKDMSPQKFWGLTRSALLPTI
# PROTOCOL_SUMMARY: Measurement of molecular interactions using surface plasmon resonance (SPR), Biacore T200
# MEASUREMENT_SETUP: 25° C., immobilized CRBN truncate, upper limit of measurement 200 μM
pKd: −log10 of the molar value.
Field: pKd. Provide a value for each of the molecules that follow.

Take a look at these entries with their results.
COc1ccnc(N2CCC3(CCCC(=O)NC3=O)C2)c1 (centres unmarked); ≤ 4.00
CN(C(=O)c1cccc(-c2ccccc2)c1)C1CCCC(=O)NC1=O (centres unmarked); ≤ 4.00
O=C1COCC2(CCCN(C(=O)c3ccccc3)C2)C(=O)N1 (centres unmarked); ≤ 4.00

Count: 2. Required value per item: pKd.
1. O=C1CCOC(c2ccccc2)C(=O)N1 (centres unmarked)
2. CC(C)(C)OC(=O)c1ccc(N2CCCC3(COCC(=O)NC3=O)C2)nc1 (centres unmarked)

OUTPUT:
["≤ 4.00", "≤ 4.00"]

Batch of 6 molecules: report pKd for each.
1. CC(C)(C)OC(=O)NCCCCCCc1ccc(C(=O)N2CCC3(CCCC(=O)NC3=O)C2)cc1Cl (centres unmarked)
2. CC(=O)Nc1ccc(Cl)c(C2CCCC(=O)NC2=O)c1 (centres unmarked)
3. O=C1CCCC(Oc2ccccc2[N+](=O)[O-])C(=O)N1 (centres unmarked)
4. CC(C)(C)OC(=O)NCCCCCCCCN1CC2(CC(=O)N(C3CCC(=O)NC3=O)C2=O)C1 (centres unmarked)
5. CC(C)(C)OC(=O)CN1CC2(CC(=O)N(C3CCC(=O)NC3=O)C2=O)C1 (centres unmarked)
6. CC(C)(C)OC(=O)N1CCN(C2CCCC(=O)NC2=O)C(=O)C1=O (centres unmarked)

OUTPUT:
1: 4.00 to 4.30; 2: ≤ 4.00; 3: ≤ 4.00; 4: ≤ 4.00; 5: ≤ 4.00; 6: ≤ 4.00

Record pKd per entry; entries follow.
1. Cn1c(=O)n(C2CCCC(=O)NC2=O)c2ccc(/C=C/C(=O)OC(C)(C)C)cc21 (centres unmarked)
2. O=C1CCCC2(CCN(c3ncc([N+](=O)[O-])cc3C(F)(F)F)C2)C(=O)N1 (centres unmarked)
3. Cc1sc2c(c1C)C(c1ccc(Cl)cc1)=N[C@@H](CC(=O)NCCCCCCCCNC(=O)c1ccc3nc(N4CCC5(CCCC(=O)NC5=O)C4)sc3c1)c1nnc(C)n1-2 (some centres unmarked)
4. O=C1CCCC2(CCN(c3ncc([N+](=O)[O-])cc3Cl)C2)C(=O)N1 (centres unmarked)
5. O=C1NC(=O)[C@@]2(c3ccc(Br)cc3)CC[C@@H]1O2 (racemic)
6. CC(C)(C)OC(=O)c1cnc(N2CCC3(CCCC(=O)NC3=O)C2)nc1 (centres unmarked)

OUTPUT:
≤ 4.00
≤ 4.00
> 4.30
> 4.30
≤ 4.00
≤ 4.00
